- test target: UniProtKB Q13133
- test summary: LXR α radioligand binding assay (SPA, competition with [3H]TO901317)
- condition description: read-out: LXRα Binding Ki
Label criterion met when Ki < 0.9 µM; otherwise criterion not met.

Completed entries (count: 3):
C[C@](O)(c1ccc(CN2CCN(c3cccc(S(C)(=O)=O)c3)C[C@H]2c2ccccc2)cc1)C(F)(F)F [46-29] ... criterion not met
CC(=O)NCc1cnc(N2CCN(c3ccc(F)c(S(C)(=O)=O)c3)C[C@H]2C(C)C)nc1C(F)(F)F [54-2] ... criterion met
CC(C)[C@@H]1CN(c2ccc(F)c(S(C)(=O)=O)c2)CCN1c1nccc(C(N)=O)n1 [4-5] ... criterion not met

Just wondering, is Ki of CC(C)[C@H]1CN(c2cccc(S(C)(=O)=O)c2)CCN1CC1CCCOC1 (stereo partly shown) [Cpd No 51-1] below 0.9 µM? criterion not met

Problem: For the compound CC(C)(F)CC1CN(c2ccc(F)c(S(C)(=O)=O)c2)CCN1c1ccc(C(F)(F)F)cn1 (stereo not shown) [35-1] , is Ki under 0.9 µM? criterion met

Consider the compound CC(C)[C@H]1CN(c2cccc(S(C)(=O)=O)c2)CCN1C[C@H]1CC[C@H](C(F)(F)F)OC1 (single isomer, unassigned) [Cpd No 49-6] . Is its Ki strictly less than 0.9 µM? criterion met

Report whether reported Ki is lower than 0.9 µM (strictly) for CC(C)[C@@H]1CN(c2ccc(C#N)c(S(C)(=O)=O)c2)CCN1c1ncc([C@@H](C)O)c(C(F)(F)F)n1 (single isomer, unassigned) [12-4] criterion not met

Take the compound CC(C)[C@H]1CN(c2ccc(CO)c(S(C)(=O)=O)c2)CCN1c1ncc(C(C)(C)O)c(C(F)(F)F)n1 [10-5] and say whether its Ki is less than 0.9 µM. criterion not met

----------
# key: entry, value: EC50
- test target: LXR α LBD protein (Homo sapiens (Human), UniProt Q13133)
- Sequence (Q13133 209-447): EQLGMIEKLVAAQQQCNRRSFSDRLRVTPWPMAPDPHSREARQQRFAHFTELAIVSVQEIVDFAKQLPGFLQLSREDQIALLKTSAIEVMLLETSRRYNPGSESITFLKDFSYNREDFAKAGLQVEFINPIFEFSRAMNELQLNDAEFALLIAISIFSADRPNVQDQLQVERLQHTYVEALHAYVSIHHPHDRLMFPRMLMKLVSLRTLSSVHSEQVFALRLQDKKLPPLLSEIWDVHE
- test summary: Human LXRα coactivator recruitment FRET assay, agonist mode
- Format: biochemical
- condition description: agonist mode
Use nM as the unit, but write only the number.

Please review the entries below; each comes with its answer.
CS(=O)(=O)c1cccc(N2CCN(c3nccc(C(F)(F)F)n3)[C@H](c3ccc(F)cc3)C2)c1 ... 665
Cc1nc(N2CCN(c3ccc(F)c(S(C)(=O)=O)c3)C[C@H]2C(C)C)ncc1F ... 1130
Cc1cccc(C2CN(c3cccc(S(C)(=O)=O)c3)CCN2Cc2ccc(C(F)(F)F)nc2)c1 (stereo not shown) ... 7770

If you can, please state the reported EC50 value of `CS(=O)(=O)c1cccc(N2CCN(C[C@H]3CC[C@@H](C(F)(F)F)CC3)[C@@H](c3ccc(F)cc3)C2)c1` . 207

Fill in the blank: the reported EC50 of CS(=O)(=O)c1cccc(N2CCN(C[C@H]3CC[C@@H](C(F)F)CC3)[C@@H](c3ccccc3)C2)c1 (single isomer, unassigned) is ____. 287

EC50 lookup needed for Cc1ccccc1[C@H]1CN(c2cccc(S(C)(=O)=O)c2)CCN1Cc1ccc(C(F)(F)F)nc1 (single isomer, unassigned) , thanks. 6690

Which EC50 is listed for `CC(C)[C@@H]1CN(c2ccc(F)c(S(C)(=O)=O)c2)CCN1c1ccc(C(F)(F)F)cn1` ? 415
